TARGET_ENTITY: T1, human programmed cell death protein 1 (hPD-1) C93S (aa 24-167) (Homo sapiens, UniProt Q15116, C93S)
T1 construct: made as a fusion with a TEV site and human Fc; the Fc was cut off with TEV protease; source: Expi293F, purified (Protein A, TEV cleavage of Fc, SEC; monomer fractions); not shown: Fc (human), C-terminal, cleaved
TEST_DESCRIPTION: SPR; Carterra LSA; Fab from the ammonium sulfate precipitate of the culture supernatant immobilised on a NiHC200M chip; hPD-1 (1-1024 nM) or mPD-1-Fc (4-1024 nM) as analyte, fourfold dilution series, no regeneration; HBS-EP pH 7.4, 25 °C; medians over the spots of a construct, KD = koff/kon
CONDITION_CONTEXT: one partner purified

BINDER	kon (M⁻¹ s⁻¹)
toripalimab Fab L.N33Y (Fab, V domains shown, as the heavy chain of Sm3; light chain of Sm3 with this change; numbers count from the chain's first residue; source: Brevibacillus, culture supernatant (ammonium sulfate precipitate); not shown: 6xHis, C-terminal, kept; 6xHN, C-terminal, kept) VH: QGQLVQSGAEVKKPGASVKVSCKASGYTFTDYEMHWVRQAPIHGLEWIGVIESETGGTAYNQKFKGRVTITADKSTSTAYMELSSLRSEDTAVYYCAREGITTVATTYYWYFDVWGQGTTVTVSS VL: DVVMTQSPLSLPVTLGQPASISCRSSQSIVHSYGNTYLEWYLQKPGQSPQLLIYKVSNRFSGVPDRFSGSGSGTDFTLKISRVEAEDVGVYYCFQGSHVPLTFGQGTKLEIK	17100
toripalimab Fab H.T58A (Fab, V domains shown, heavy chain of Sm3 with this change; numbers count from the chain's first residue; as the light chain of Sm3; source: Brevibacillus, culture supernatant (ammonium sulfate precipitate); not shown: 6xHis, C-terminal, kept; 6xHN, C-terminal, kept) VH: QGQLVQSGAEVKKPGASVKVSCKASGYTFTDYEMHWVRQAPIHGLEWIGVIESETGGAAYNQKFKGRVTITADKSTSTAYMELSSLRSEDTAVYYCAREGITTVATTYYWYFDVWGQGTTVTVSS VL: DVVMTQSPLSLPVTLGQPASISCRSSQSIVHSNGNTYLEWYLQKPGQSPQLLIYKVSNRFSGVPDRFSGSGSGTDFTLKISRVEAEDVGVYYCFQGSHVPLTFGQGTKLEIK	15100
toripalimab Fab L.G96A (Fab, V domains shown, as the heavy chain of Sm3; light chain of Sm3 with this change; numbers count from the chain's first residue; source: Brevibacillus, culture supernatant (ammonium sulfate precipitate); not shown: 6xHis, C-terminal, kept; 6xHN, C-terminal, kept) VH: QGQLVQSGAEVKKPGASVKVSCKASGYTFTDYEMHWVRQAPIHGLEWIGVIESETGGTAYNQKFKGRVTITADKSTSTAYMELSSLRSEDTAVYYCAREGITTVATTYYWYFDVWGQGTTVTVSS VL: DVVMTQSPLSLPVTLGQPASISCRSSQSIVHSNGNTYLEWYLQKPGQSPQLLIYKVSNRFSGVPDRFSGSGSGTDFTLKISRVEAEDVGVYYCFQASHVPLTFGQGTKLEIK	13900
toripalimab Fab L.L101V (Fab, V domains shown, as the heavy chain of Sm3; light chain of Sm3 with this change; numbers count from the chain's first residue; source: Brevibacillus, culture supernatant (ammonium sulfate precipitate); not shown: 6xHis, C-terminal, kept; 6xHN, C-terminal, kept) VH: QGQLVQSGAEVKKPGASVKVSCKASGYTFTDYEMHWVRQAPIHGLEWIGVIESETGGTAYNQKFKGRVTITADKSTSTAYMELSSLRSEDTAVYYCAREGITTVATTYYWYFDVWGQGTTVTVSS VL: DVVMTQSPLSLPVTLGQPASISCRSSQSIVHSNGNTYLEWYLQKPGQSPQLLIYKVSNRFSGVPDRFSGSGSGTDFTLKISRVEAEDVGVYYCFQGSHVPVTFGQGTKLEIK	5600
toripalimab Fab L.S61Y (Fab, V domains shown, as the heavy chain of Sm3; light chain of Sm3 with this change; numbers count from the chain's first residue; source: Brevibacillus, culture supernatant (ammonium sulfate precipitate); not shown: 6xHis, C-terminal, kept; 6xHN, C-terminal, kept) VH: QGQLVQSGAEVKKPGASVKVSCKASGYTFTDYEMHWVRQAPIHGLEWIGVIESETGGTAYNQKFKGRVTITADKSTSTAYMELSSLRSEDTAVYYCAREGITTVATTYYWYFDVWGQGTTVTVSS VL: DVVMTQSPLSLPVTLGQPASISCRSSQSIVHSNGNTYLEWYLQKPGQSPQLLIYKVSNRFYGVPDRFSGSGSGTDFTLKISRVEAEDVGVYYCFQGSHVPLTFGQGTKLEIK	20000

Where these numbers come from: paper PMC10663500
